experiment: AZD8186 plasma pharmacokinetics (UPLC-MS/MS, noncompartmental); format: in vivo, human; details: human, plasma, oral, TAC-2: docetaxel 75 mg/m^2, AZD8186 120 mg; plasma, C2D1; n=7; read-out: AUC0-6h
observed_property: AUC(0-t) (ng·h/mL)
Give the value, in units of ng·h/mL, as a plain number.

Exercise: // lookup AUC(0-t) for C[C@@H](Nc1cc(F)cc(F)c1)c1cc(C(=O)N(C)C)cc2c(=O)cc(N3CCOCC3)oc12
Solution: 1800

====

Test: AZD8186 plasma pharmacokinetics (UPLC-MS/MS, noncompartmental)
Assay type: in vivo, human
Conditions: human, plasma, oral, TAC-2: docetaxel 75 mg/m^2, AZD8186 120 mg; plasma, C2D1; n=7
Description: Plasma samples were collected at predefined time points based upon the dosing schedules for docetaxel and AZD8186. Cycle 1, day 1 (C1D1) pretreatment baseline measurements were collected for both drugs. […] Plasma concentrations of docetaxel were quantified using a validated liquid chromatography and tandem mass spectrometry.[36] The lower limit of quantitation for docetaxel was 0.5 ng/ml. […]
observed_property: Tmax (h)
Give the value, in units of h, as a plain number.

Exercise: // lookup Tmax for C[C@@H](Nc1cc(F)cc(F)c1)c1cc(C(=O)N(C)C)cc2c(=O)cc(N3CCOCC3)oc12 [AZD8186]
Solution: 4.43

====

assay: AZD8186 plasma pharmacokinetics (UPLC-MS/MS, noncompartmental); format: in vivo, human; conditions: human, plasma, oral, TAC-1: docetaxel 75 mg/m^2, AZD8186 60 mg; plasma, C2D1; n=1; read-out: AUC0-6h
observed_property: AUC(0-t) (ng·h/mL)
Give the value, in units of ng·h/mL, as a plain number.

Exercise: // lookup AUC(0-t) for C[C@@H](Nc1cc(F)cc(F)c1)c1cc(C(=O)N(C)C)cc2c(=O)cc(N3CCOCC3)oc12 [AZD8186]
Solution: 1110

====

test: AZD8186 plasma pharmacokinetics (UPLC-MS/MS, noncompartmental); type: in vivo, human; details: human, plasma, oral, TAC-1B AZD8186 reduced: docetaxel 45 mg/m^2, AZD8186 30 mg; plasma, C2D1; n=1; read-out: AUC0-6h
observed_property: AUC(0-t)
Quick note: unit goes after the number.

Exercise: // lookup AUC(0-t) for C[C@@H](Nc1cc(F)cc(F)c1)c1cc(C(=O)N(C)C)cc2c(=O)cc(N3CCOCC3)oc12
Solution: 789 ng·h/mL

====

assay: AZD8186 plasma pharmacokinetics (UPLC-MS/MS, noncompartmental); format: in vivo, human; conditions: human, plasma, oral, TAC-1B: docetaxel 60 mg/m^2, AZD8186 60 mg; plasma, C2D1; n=1
observed_property: Cmax (ng/mL)
Give the value, in units of ng/mL, as a plain number.

Exercise: // lookup Cmax for C[C@@H](Nc1cc(F)cc(F)c1)c1cc(C(=O)N(C)C)cc2c(=O)cc(N3CCOCC3)oc12
Solution: 285

====

assay: AZD8186 plasma pharmacokinetics (UPLC-MS/MS, noncompartmental); format: in vivo, human; conditions: human, plasma, oral, TAC-1B: docetaxel 60 mg/m^2, AZD8186 60 mg; plasma, C2D1; n=1; read-out: AUC0-6h
observed_property: AUC(0-t) (ng·h/mL)
Give the value, in units of ng·h/mL, as a plain number.

Exercise: // lookup AUC(0-t) for C[C@@H](Nc1cc(F)cc(F)c1)c1cc(C(=O)N(C)C)cc2c(=O)cc(N3CCOCC3)oc12
Solution: 808

====

Experiment: AZD8186 plasma pharmacokinetics (UPLC-MS/MS, noncompartmental)
Assay type: in vivo, human
Details: human, plasma, oral, TAC-1B AZD8186 reduced: docetaxel 45 mg/m^2, AZD8186 30 mg; plasma, C2D1; n=1
Experimental: Plasma samples were collected at predefined time points based upon the dosing schedules for docetaxel and AZD8186. Cycle 1, day 1 (C1D1) pretreatment baseline measurements were collected for both drugs. […] Plasma concentrations of docetaxel were quantified using a validated liquid chromatography and tandem mass spectrometry.[36] The lower limit of quantitation for docetaxel was 0.5 ng/ml. […]
observed_property: Tmax (h)
Give the value, in units of h, as a plain number.

Exercise: // lookup Tmax for C[C@@H](Nc1cc(F)cc(F)c1)c1cc(C(=O)N(C)C)cc2c(=O)cc(N3CCOCC3)oc12 [AZD8186]
Solution: 8.43

====

experiment: AZD8186 plasma pharmacokinetics (UPLC-MS/MS, noncompartmental); type: in vivo, human; settings: human, plasma, oral, TAC1+GF: docetaxel 75 mg/m^2, AZD8186 60 mg; plasma, C2D1
observed_property: Cmax
Quick note: unit goes after the number.

Exercise: // lookup Cmax for C[C@@H](Nc1cc(F)cc(F)c1)c1cc(C(=O)N(C)C)cc2c(=O)cc(N3CCOCC3)oc12
Solution: 0.166 µg/mL

====

assay: AZD8186 plasma pharmacokinetics (UPLC-MS/MS, noncompartmental); assay type: in vivo, human; settings: human, plasma, oral, TAC-1: docetaxel 75 mg/m^2, AZD8186 60 mg; plasma, C2D1
observed_property: Cmax
Quick note: unit goes after the number.

Exercise: // lookup Cmax for C[C@@H](Nc1cc(F)cc(F)c1)c1cc(C(=O)N(C)C)cc2c(=O)cc(N3CCOCC3)oc12
Solution: 464 ng/mL

====

test: AZD8186 plasma pharmacokinetics (UPLC-MS/MS, noncompartmental); assay type: in vivo, human; details: human, plasma, oral, TAC1+GF: docetaxel 75 mg/m^2, AZD8186 60 mg; plasma, C2D1; n=3; read-out: AUC0-6h
observed_property: AUC(0-t) (ng·h/mL)
Give the value, in units of ng·h/mL, as a plain number.

Exercise: // lookup AUC(0-t) for C[C@@H](Nc1cc(F)cc(F)c1)c1cc(C(=O)N(C)C)cc2c(=O)cc(N3CCOCC3)oc12
Solution: 224
